- run-description: Solubility test
- Type: physicochemical
- measurement-setup: solubility in JP 2nd fluid B, 1% DMSO; *2: shaken for 1 hour at room temperature; read-out: JP2_μM
Measured solubility kinetic at 16 h values are reported for all entries that follow.

Check out these entries, answers already filled in.
Quick one: solubility kinetic at 16 h of "C[C@]1(c2cc(NC(=O)c3cnc(OCF)cn3)ccc2F)N=C(N)SCC12CC(F)(F)C2" ?
>50 µM

Quick one: solubility kinetic at 16 h of "C[C@H]1SC(N)=N[C@](C)(c2cccc(NC(=O)c3ccc(F)cn3)c2)[C@H]1F" ?
>50.0 µM

Quick one: solubility kinetic at 16 h of "COc1ccc(C(=O)Nc2ccc(F)c([C@@]3(C)N=C(N)O[C@H](C4(F)CC4)[C@@H]3F)c2)nc1" ?
>50.0 µM

---
Quick one: solubility kinetic at 16 h of "COc1ccc(C(=O)Nc2ccc(F)c([C@@]3(C)N=C(N)O[C@H](C(F)(F)C4CC4)[C@@H]3F)c2)nn1" ?
>50.0 µM

* * *

- run-description: Metabolic stability test
- Format: in vitro ADME
- measurement-setup: human liver microsomes, 37° C., 30 minutes, NADPH
Class membership depends on remaining % alone; the intervals are bucket A = under 80%, bucket B = from 80% up to 90%, bucket C = 90% and over

Kindly identify the class of COc1ccc(C(=O)Nc2ccc(F)c([C@@]3(C)N=C(N)O[C@H](C(F)(F)C4CC4)[C@@H]3F)c2)nn1 [Compound I-95] .
bucket C

Kindly identify the class of COC[C@H]1SC(N)=N[C@](C)(c2cc(NC(=O)c3cnc(OCF)cn3)ccc2F)[C@H]1F [Compound I-91] .
bucket A

Kindly identify the class of COc1cnc(C(=O)Nc2ccc(F)c([C@@]3(C)N=C(N)S[C@H](C)[C@@H]3OC)c2)cn1 [Compound I-90] .
bucket B

Kindly identify the class of C[C@H]1SC(N)=N[C@](C)(c2cc(NC(=O)c3cnc(OCC(F)(F)F)cn3)ccc2F)[C@H]1F [Compound I-46] .
bucket C

Kindly identify the class of C[C@H]1SC(N)=N[C@](C)(c2cc(NC(=O)c3ncc(OCC(F)(F)F)cn3)ccc2F)[C@H]1F [Compound I-53] .
bucket C

* * *

- target-or-system: P-gp (MDR1 expressing LLC-PK1 cells) (Homo sapiens)
- Construct: host or cells: LLC-PK1
- Sequence (P08183 whole entry): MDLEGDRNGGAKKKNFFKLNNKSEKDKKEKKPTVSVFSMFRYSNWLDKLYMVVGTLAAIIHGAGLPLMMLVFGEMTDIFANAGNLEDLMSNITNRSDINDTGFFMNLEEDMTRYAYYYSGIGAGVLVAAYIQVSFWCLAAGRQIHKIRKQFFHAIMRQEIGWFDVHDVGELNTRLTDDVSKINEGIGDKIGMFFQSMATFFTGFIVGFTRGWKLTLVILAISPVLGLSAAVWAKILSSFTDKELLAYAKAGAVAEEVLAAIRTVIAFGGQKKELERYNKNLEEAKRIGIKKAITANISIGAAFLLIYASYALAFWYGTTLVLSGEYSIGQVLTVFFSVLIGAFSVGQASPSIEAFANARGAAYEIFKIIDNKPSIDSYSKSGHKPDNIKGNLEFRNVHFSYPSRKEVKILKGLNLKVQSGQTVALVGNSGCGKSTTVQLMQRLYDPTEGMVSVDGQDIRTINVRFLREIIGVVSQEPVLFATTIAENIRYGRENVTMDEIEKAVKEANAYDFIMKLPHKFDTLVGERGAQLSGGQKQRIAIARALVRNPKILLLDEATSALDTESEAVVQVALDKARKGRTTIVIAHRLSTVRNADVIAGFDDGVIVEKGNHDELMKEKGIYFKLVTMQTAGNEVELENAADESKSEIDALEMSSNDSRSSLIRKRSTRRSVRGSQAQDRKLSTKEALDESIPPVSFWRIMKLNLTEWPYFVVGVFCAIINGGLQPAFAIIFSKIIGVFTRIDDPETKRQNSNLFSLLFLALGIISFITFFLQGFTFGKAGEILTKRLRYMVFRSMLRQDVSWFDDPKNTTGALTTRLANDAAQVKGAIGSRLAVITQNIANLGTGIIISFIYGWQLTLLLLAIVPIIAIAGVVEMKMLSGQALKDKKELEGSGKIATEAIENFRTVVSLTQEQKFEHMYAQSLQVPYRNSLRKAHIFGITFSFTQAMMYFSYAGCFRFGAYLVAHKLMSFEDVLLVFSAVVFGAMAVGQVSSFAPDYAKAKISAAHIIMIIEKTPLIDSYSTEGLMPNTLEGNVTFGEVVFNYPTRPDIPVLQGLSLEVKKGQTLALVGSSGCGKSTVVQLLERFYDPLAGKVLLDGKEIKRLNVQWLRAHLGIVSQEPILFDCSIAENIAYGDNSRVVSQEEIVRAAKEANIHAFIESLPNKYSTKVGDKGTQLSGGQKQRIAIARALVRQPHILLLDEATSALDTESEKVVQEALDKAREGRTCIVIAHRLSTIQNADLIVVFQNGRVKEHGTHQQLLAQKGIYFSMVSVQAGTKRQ
- run-description: P-gp substrate test
- Assay type: in vitro ADME
- measurement-setup: net flux = Efflux Ratio in MDR1 expressing cells / Efflux Ratio in parent LLC-PK1 cells
measure-name: ER ratio (Cell: MDR1/LLC-PK1)
Just the number.

Quick one: ER ratio (Cell: MDR1/LLC-PK1) of C[C@]1(c2cc(NC(=O)c3ccc(OCF)cn3)ccc2F)N=C(N)O[C@H](C2(F)CC2)[C@@H]1F [Compound I-101] ?
1.1

---
Quick one: ER ratio (Cell: MDR1/LLC-PK1) of COc1cnc(C(=O)Nc2ccc(F)c([C@@]3(C)N=C(N)O[C@H](C(C)(F)F)[C@@H]3F)c2)cn1 [Compound I-42] ?
1.5

Quick one: ER ratio (Cell: MDR1/LLC-PK1) of COc1cnc(C(=O)Nc2cccc([C@@]3(C)N=C(N)S[C@H](C)[C@@H]3F)c2)cn1 [Compound I-103] ?
1.4
